Form field: cAMP EC50 (one value per entry).
- SUBJECT_OF_TEST: T1, wild-type human PTH/PTHrP receptor (hP1R-WT) (human, UniProt Q03431 27-593)
- T1 sequence (looked up): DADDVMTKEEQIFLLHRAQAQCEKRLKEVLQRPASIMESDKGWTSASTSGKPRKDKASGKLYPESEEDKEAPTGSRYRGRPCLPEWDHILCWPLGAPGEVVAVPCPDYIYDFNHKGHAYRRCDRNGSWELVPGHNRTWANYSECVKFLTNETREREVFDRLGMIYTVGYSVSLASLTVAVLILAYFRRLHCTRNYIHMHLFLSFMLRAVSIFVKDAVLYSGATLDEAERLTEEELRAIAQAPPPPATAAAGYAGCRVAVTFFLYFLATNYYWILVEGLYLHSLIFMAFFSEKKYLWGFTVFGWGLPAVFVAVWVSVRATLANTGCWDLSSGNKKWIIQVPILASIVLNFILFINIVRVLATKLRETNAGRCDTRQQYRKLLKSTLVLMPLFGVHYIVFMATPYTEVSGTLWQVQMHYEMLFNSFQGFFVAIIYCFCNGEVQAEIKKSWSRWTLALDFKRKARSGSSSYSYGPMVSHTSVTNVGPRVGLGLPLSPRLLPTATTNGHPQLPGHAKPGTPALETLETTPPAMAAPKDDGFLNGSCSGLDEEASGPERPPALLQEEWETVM
- ASSAY_TEXT: cell-based or functional assay
Square brackets hold non-standard residues; d marks the D form. Ends that are not written are not given here. hArg = N=C(N)NCCCC[C@H](N)C(=O)O; Aib = CC(C)(N)C(=O)O

{"columns": ["BINDER", "cAMP EC50 [nM]"],
 "data": [
  ["AVAEIQLMH[Aib][hArg]AKW-NH2 (N-terminus assumed; SMILES CC[C@H](C)[C@H](NC(=O)[C@H](CCC(=O)O)NC(=O)[C@H](C)NC(=O)[C@@H](NC(=O)[C@H](C)N)C(C)C)C(=O)N[C@@H](CCC(N)=O)C(=O)N[C@@H](CC(C)C)C(=O)N[C@@H](CCSC)C(=O)N[C@@H](Cc1c[nH]cn1)C(=O)NC(C)(C)C(=O)N[C@@H](CCCCNC(=N)N)C(=O)N[C@@H](C)C(=O)N[C@@H](CCCCN)C(=O)N[C@@H](Cc1c[nH]c2ccccc12)C(N)=O, Aib scan of [M]PTH(1-14); Aib replaces the Gln^10 of [M]; also called 631 Aib-10) [[Aib^10,M]PTH(1-14)]", 3000],
  ["AVAEIQLMHQ[hArg]AKW-NH2 (N-terminus assumed; SMILES CC[C@H](C)[C@H](NC(=O)[C@H](CCC(=O)O)NC(=O)[C@H](C)NC(=O)[C@@H](NC(=O)[C@H](C)N)C(C)C)C(=O)N[C@@H](CCC(N)=O)C(=O)N[C@@H](CC(C)C)C(=O)N[C@@H](CCSC)C(=O)N[C@@H](Cc1c[nH]cn1)C(=O)N[C@@H](CCC(N)=O)C(=O)N[C@@H](CCCCNC(=N)N)C(=O)N[C@@H](C)C(=O)N[C@@H](CCCCN)C(=O)N[C@@H](Cc1c[nH]c2ccccc12)C(N)=O, X = Har; also called [M]PTH(1-14); 621 [M]PTH(1-14)) [[Ala^3,12,Gln^10,Har^11,Trp^14]PTH(1-14)amide]", 100]
]}
